experiment summary: Rat pharmacokinetic evaluation assay (oral)
Format: in vivo
condition info: male, SD rats, p.o. 5 mg/kg, plasma
AUC(0-inf) values by entry
Give the value; after it, write the unit.

Challenge: Suppose we examine the compound `[2H]C([2H])(c1ccc(-c2ccccc2S(=O)(=O)Nc2noc(C)c2Cl)c(COCC)c1)N1C(=O)C2(CCCC2)N=C1CCCC` ; what AUC(0-inf) value has been reported?
Response given: 10200 ng·h/mL

Challenge: Suppose we examine the compound `CCCCC1=NC2(CCCC2)C(=O)N1Cc1ccc(-c2ccccc2S(=O)(=O)Nc2noc(C)c2Cl)c(COCC)c1` ; what AUC(0-inf) value has been reported?
Response given: 16000 ng·h/mL
